SYSTEM_NAME: CDK3/CycE (Homo sapiens, UniProt Q00526)
Sequence (Q00526 whole entry): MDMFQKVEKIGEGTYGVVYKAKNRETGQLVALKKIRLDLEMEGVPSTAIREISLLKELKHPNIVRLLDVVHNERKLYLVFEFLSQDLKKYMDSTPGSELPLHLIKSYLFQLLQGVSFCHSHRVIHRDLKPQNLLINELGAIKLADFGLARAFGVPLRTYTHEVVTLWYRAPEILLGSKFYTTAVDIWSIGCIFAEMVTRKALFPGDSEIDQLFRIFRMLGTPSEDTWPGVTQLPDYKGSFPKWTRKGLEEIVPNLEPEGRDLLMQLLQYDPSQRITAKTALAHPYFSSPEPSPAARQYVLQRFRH
Sequence (P24864 whole entry partner): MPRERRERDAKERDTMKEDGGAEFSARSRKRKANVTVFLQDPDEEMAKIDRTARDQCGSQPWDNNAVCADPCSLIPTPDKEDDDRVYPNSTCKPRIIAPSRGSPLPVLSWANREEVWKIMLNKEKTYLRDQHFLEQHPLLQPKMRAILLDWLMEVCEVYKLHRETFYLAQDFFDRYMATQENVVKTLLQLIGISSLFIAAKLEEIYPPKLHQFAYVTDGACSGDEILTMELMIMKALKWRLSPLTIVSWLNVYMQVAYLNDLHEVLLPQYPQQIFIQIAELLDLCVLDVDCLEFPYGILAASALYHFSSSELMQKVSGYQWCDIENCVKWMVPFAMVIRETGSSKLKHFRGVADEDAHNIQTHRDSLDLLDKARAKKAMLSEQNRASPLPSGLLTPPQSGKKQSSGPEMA
EXPERIMENTAL_DETAILS: In vitro kinase inhibition assay, CDK3/CycE
TEST_READOUT: IC50 (µM)
Could you give me the number in µM? Just the number is fine.

Item: `COc1ccccc1-c1cc(Nc2cccc(S(N)(=O)=O)c2)ncn1` | System: CDK3/CycE (Homo sapiens, UniProt Q00526) | IC50: 18.5
